Kindly find below pIC50 information for Cathepsin K (Homo sapiens, UniProt P43235) taken from the literature.
FYI, pIC50 means -log10 of a concentration in mol per litre.

Past entries and their recorded results:
Compound: N#CC1(NC(=O)C2(NC(=O)c3cc4ccc(-c5ccc(C(=O)N6CCOCC6)cc5)cc4o3)CCC(F)(F)CC2)CC1
pIC50: 8.85
//
Compound: N#CC1(NC(=O)C2(NC(=O)c3cc4ccc(-c5ccc(C6(O)COC6)nc5)cc4o3)CCCCC2)CC1
pIC50: 9.17
//
Compound: COC[C@H]1C[C@@H](NC(=O)c2ncc(-c3cc(C#N)ccc3OC3CC3)o2)CN1C#N
pIC50: 4.00
//
Compound: COc1ccc(-c2ccc3cc(C(=O)NC4(C(=O)NC5(C#N)CC5)CCC(F)(F)CC4)oc3c2)cc1OC
pIC50: 8.68
//
Compound: N#CC1(NC(=O)C2(NC(=O)c3cc4ccc(-c5ccc(-n6cncn6)cc5)cc4o3)CCCCCC2)CC1
pIC50: 8.90

What does the record list as pIC50 for `NC(=S)NN=C(c1cc(O)cc(Br)c1)c1cc(O)cc(Br)c1` ? 6.43

Give the measured pIC50 of `N#CC1(NC(=O)C2(NC(=O)c3cc4ccc(-c5ccc(S(=O)(=O)N6CCOCC6)cc5)cc4o3)CCC(F)(F)CC2)CC1` . 9.00

Please give the measured pIC50 for this compound: `N#CC1(NC(=O)C2(NC(=O)c3cc4ccc(-c5csc(C6(O)COC6)n5)cc4o3)CCCCC2)CC1` 9.02

Using the record for `CC1(COc2ccc(-c3ccc4cc(C(=O)NC5(C(=O)NC6(C#N)CC6)CCC(F)(F)CC5)oc4c3)cc2)COC1` , report its pIC50. 8.53

Record request: pIC50 value, item N#CC1(NC(=O)C2(NC(=O)c3cc4ccc(-c5ccc(C(O)C(N)=O)cc5)cc4o3)CCC(F)(F)CC2)CC1 (stereo not shown) 8.82
